Reported % from freshly prepared samples by item:
settings: human, 6 h, 150 ng/mL
Return type: number; implicit unit %.

The cases that follow already have their % from freshly prepared samples on record.
| compound | unit abbrev | % from freshly prepared samples |
| --- | --- | --- |
| O=c1nc(N2CCN(CC3CCCCC3)CC2)sc2c([N+](=O)[O-])cc(C(F)(F)F)cc12 [PBTZ169, macozinone] | % | -3 |
| O=C(C1CCCCC1)N1CCN(c2nc(=O)c3cc(C(F)(F)F)cc([N+](=O)[O-])c3s2)CC1 [Met oxo] | % | -8 |
| O=C1CCCC(CN2CCN(c3nc(=O)c4cc(C(F)(F)F)cc([N+](=O)[O-])c4s3)CC2)C1 (stereo not drawn) [Met 3-oxo] | % | -4 |
| O=c1nc(N2CCN(CC3CCCCC3O)CC2)sc2c([N+](=O)[O-])cc(C(F)(F)F)cc12 (stereo not drawn) [Met 2-OH] | % | -4 |
| O=c1nc(N2CCN(CC3CCCC(O)C3)CC2)sc2c([N+](=O)[O-])cc(C(F)(F)F)cc12 (stereo not drawn) [Met 3-OH] | % | -5 |

Below: the item to evaluate.
The recorded % from freshly prepared samples for entry O=c1nc(N2CCN(CC3(O)CCCCC3)CC2)sc2c([N+](=O)[O-])cc(C(F)(F)F)cc12 [Met 1-OH] equals -3

* * *

settings: human, 6 h, 0.5 ng/mL
Below, each entry is listed with its recorded % from freshly processed samples (n=2).
Hi! Could you send only the number? It should be in %, unit omitted.

The examples below pair each entry with its known result.
| molecule | unit abbrev | % from freshly processed samples (n=2) |
| --- | --- | --- |
| O=c1nc(N2CCN(CC3CCCCC3)CC2)sc2c([N+](=O)[O-])cc(C(F)(F)F)cc12 | % | -12 |
| O=c1nc(N2CCN(CC3CCCCC3O)CC2)sc2c([N+](=O)[O-])cc(C(F)(F)F)cc12 (stereo not drawn) | % | -16 |
| O=c1nc(N2CCN(CC3(O)CCCCC3)CC2)sc2c([N+](=O)[O-])cc(C(F)(F)F)cc12 | % | -15 |

Record O=c1nc(N2CCN(CC3CCCC(O)C3)CC2)sc2c([N+](=O)[O-])cc(C(F)(F)F)cc12 (stereo not drawn) . Reported % from freshly processed samples (n=2): -14

Documented % from freshly processed samples (n=2) of O=C(C1CCCCC1)N1CCN(c2nc(=O)c3cc(C(F)(F)F)cc([N+](=O)[O-])c3s2)CC1 : -11

According to the records, this molecule O=C1CCCC(CN2CCN(c3nc(=O)c4cc(C(F)(F)F)cc([N+](=O)[O-])c4s3)CC2)C1 (stereo not drawn) displays % from freshly processed samples (n=2) of -14

* * *

settings: human, 6 h, 500 ng/mL
# % from freshly processed samples (n=2) values compiled below
Quick reminder: number only, in %, skip the unit.

Past entries and their recorded results:
| molecule | unit abbrev | test value |
| --- | --- | --- |
| O=c1nc(N2CCN(CC3(O)CCCCC3)CC2)sc2c([N+](=O)[O-])cc(C(F)(F)F)cc12 | % | -1 |
| O=c1nc(N2CCN(CC3CCCCC3O)CC2)sc2c([N+](=O)[O-])cc(C(F)(F)F)cc12 (stereo not drawn) | % | -3 |
| O=C(C1CCCCC1)N1CCN(c2nc(=O)c3cc(C(F)(F)F)cc([N+](=O)[O-])c3s2)CC1 | % | -8 |

molecule O=c1nc(N2CCN(CC3CCCCC3)CC2)sc2c([N+](=O)[O-])cc(C(F)(F)F)cc12 , % from freshly processed samples (n=2) observed: -4

Briefly, % from freshly processed samples (n=2) measured for O=c1nc(N2CCN(CC3CCCC(O)C3)CC2)sc2c([N+](=O)[O-])cc(C(F)(F)F)cc12 (stereo not drawn) : -6

So, O=C1CCCC(CN2CCN(c3nc(=O)c4cc(C(F)(F)F)cc([N+](=O)[O-])c4s3)CC2)C1 (stereo not drawn) ? Its % from freshly processed samples (n=2) was -4
